System: SK-MEL-5
Assay: Growth inhibition of human SK-MEL-5 cells incubated for 48 hrs by sulforhodamine B assay
Type: functional
ENDPOINT: log10 GI50 (log10 of the value in nM)

{"STRUCTURE": "CCc1ccccc1NC(=O)c1sc2nc3c(cc2c1N)C(=O)CCC3", "log10 GI50": 2.45}
{"STRUCTURE": "Cc1cccc(NC(=O)c2sc3nc4c(cc3c2N)C(=O)CCC4)c1", "log10 GI50": 2.23}
{"STRUCTURE": "CCc1cccc(C)c1NC(=O)c1sc2nc3c(cc2c1N)C(=O)CCC3", "log10 GI50": 2.47}
{"STRUCTURE": "COc1cccc(NC(=O)c2sc3nc4c(cc3c2N)CN(Cc2ccccc2)CC4)c1", "log10 GI50": 3.33}
{"STRUCTURE": "Nc1c(C(=O)Nc2ccccc2)sc2nc3c(cc12)CN(Cc1ccccc1)CC3", "log10 GI50": 3.98}
{"STRUCTURE": "CN1CCc2nc3sc(C(N)=O)c(N)c3c(-c3cccs3)c2C1", "log10 GI50": 3.16}
{"STRUCTURE": "Cc1cc(C)c(NC(=O)c2sc3nc4c(cc3c2N)CN(Cc2ccccc2)CC4)c(C)c1", "log10 GI50": 3.17}
{"STRUCTURE": "Cc1ccc(NC(=O)c2sc3nc4c(cc3c2N)C(=O)CCC4)cc1C", "log10 GI50": 2.58}

###

Tested on: Malme-3M
Experiment: Growth inhibition of human Malme-3M cells assessed as cell growth at 0.01 uM incubated for 48 hrs by sulforhodamine B assay relative to control
Format: functional
Settings: read-out: Activity

{"STRUCTURE": "CN1CCc2nc3sc(C(N)=O)c(N)c3c(-c3cccs3)c2C1", "UNIT_NAME": "%", "growth at 0.01 µM": 104}
{"STRUCTURE": "Cc1ccc(NC(=O)c2sc3nc4c(cc3c2N)C(=O)CCC4)cc1C", "UNIT_NAME": "%", "growth at 0.01 µM": 96}
{"STRUCTURE": "CCc1ccccc1NC(=O)c1sc2nc3c(cc2c1N)C(=O)CCC3", "UNIT_NAME": "%", "growth at 0.01 µM": 100}

###

Tested on: BT-549
Test: Growth inhibition of human BT-549 cells incubated for 48 hrs by sulforhodamine B assay
Type: functional
Form field: GI50 (one value per entry).

{"STRUCTURE": "Cc1cc(C)c(NC(=O)c2sc3nc4c(cc3c2N)CN(Cc2ccccc2)CC4)c(C)c1", "EXPERIMENTAL_TARGET": "BT-549", "UNIT_NAME": "µM", "GI50": 4.05}
{"STRUCTURE": "CN1CCc2nc3sc(C(N)=O)c(N)c3c(-c3cccs3)c2C1", "EXPERIMENTAL_TARGET": "BT-549", "UNIT_NAME": "µM", "GI50": 3.26}
{"STRUCTURE": "CCc1ccccc1NC(=O)c1sc2nc3c(cc2c1N)C(=O)CCC3", "EXPERIMENTAL_TARGET": "BT-549", "UNIT_NAME": "µM", "GI50": 27.4}
{"STRUCTURE": "COc1cccc(NC(=O)c2sc3nc4c(cc3c2N)CN(Cc2ccccc2)CC4)c1", "EXPERIMENTAL_TARGET": "BT-549", "UNIT_NAME": "µM", "GI50": 2.83}
{"STRUCTURE": "Nc1c(C(=O)Nc2ccccc2)sc2nc3c(cc12)CN(Cc1ccccc1)CC3", "EXPERIMENTAL_TARGET": "BT-549", "UNIT_NAME": "µM", "GI50": 16.8}
